As shown below, each of these compounds has a reported melting point value.

In [3]: df
Out[3]:
                    structure_smiles_string        readout  measured_result
0        OB1OCc2ccc(-n3ccc4cc(Cl)ccc43)cc21  melting point    149 to 154 °C
1  O=S(=O)(c1ccccc1)N(c1ccc2c(c1)COB2O)S(=O)(=O)c1ccccc1  melting point    142 to 152 °C

Exam item: Look up melting point for this compound: `N#CCCSc1cn(-c2ccc3c(c2)B(O)OC3)c2ccc(Cl)cc12`
Marked response: > 225 °C

Exam item: Look up melting point for this compound: `OB1OCc2ccc(Oc3ccc(C(F)(F)F)cc3)cc21`
Marked response: 98 to 105 °C

Exam item: Look up melting point for this compound: `OB1OCc2ccc(N(Cc3ccccc3)Cc3ccccc3)cc21`
Marked response: 115 to 123 °C
